- measurement_target: T1R2-TMD (Homo sapiens, UniProt Q8TE23)
- Construct: first 45 amino acids of rat somatostatin type 3 receptor plus linker) (N)
- Sequence (Q8TE23 564-839): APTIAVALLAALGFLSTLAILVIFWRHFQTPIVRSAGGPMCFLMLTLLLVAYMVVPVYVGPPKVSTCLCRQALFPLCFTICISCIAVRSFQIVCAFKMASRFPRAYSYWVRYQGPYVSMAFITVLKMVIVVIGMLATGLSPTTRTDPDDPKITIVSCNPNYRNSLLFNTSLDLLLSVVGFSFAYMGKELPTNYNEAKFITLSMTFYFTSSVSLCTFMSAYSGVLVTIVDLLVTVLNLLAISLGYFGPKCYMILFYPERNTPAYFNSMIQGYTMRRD
- assay_explanation: Fluo-4 calcium assay in HEK293 cells stably expressing G16gust44 and T1R2-TMD
- conditions: T1R2-TMD; 4-parameter logistic fit, doses 0.1 to 200 micromolar
recorded_endpoint: EC50

>>> val("C=C(C)[C@@H]1CC=C(/C=N/O)CC1")
"6.2 µM"
